Answer each item with its documented % inhibition.
System: Trypanosoma brucei
PROCEDURE_DETAILS: DNDI: Inhibition of Human African Trypanosomiasis, SBRI 427, in vitro at 2 ug.mL-1
Type: functional
About 390 (8.9%) of roughly 4,400 compounds showed an effect of 50% or more. Only a selection was taken, and strong results are over-represented in it overall.
Return type: number; implicit unit %.

QUERY: Given COc1ccc(NCc2coc(-c3ccc(F)cc3)n2)cc1 , respond with its % inhibition.
RESULT: -3

QUERY: Given COc1cccc(CN/C(=N\O)c2cccnc2OC2CCC2)c1 , respond with its % inhibition.
RESULT: -1

QUERY: Given O/N=C(\NCc1cccnc1)c1cccnc1OCC1CCCCC1 , respond with its % inhibition.
RESULT: 6

QUERY: Given Cc1cc(Oc2ccc(/C(=N/O)NCc3ccccc3)cn2)cc(C(C)C)c1 , respond with its % inhibition.
RESULT: 14

QUERY: Given Cc1ccc(/C(=N/O)N2CCSCC2)c(Oc2ccc3ccccc3c2)n1 , respond with its % inhibition.
RESULT: 12

QUERY: Given CCCCN(CC#N)Cc1coc(-c2ccc(C)cc2)n1 , respond with its % inhibition.
RESULT: 7

QUERY: Given CCc1ccc(Oc2ncccc2/C(=N/O)NC(C)COC)cc1 (stereo unspecified) , respond with its % inhibition.
RESULT: 87

QUERY: Given CCOc1cccc(-c2nc(CN3CCCCC3)co2)c1 , respond with its % inhibition.
RESULT: -5

QUERY: Given CCC(C)(C)N/C(=N\O)c1ccc(Oc2cccc(C)c2)nc1 , respond with its % inhibition.
RESULT: 67

QUERY: Given Cc1cc(Oc2ccc(/C(=N/O)NCc3cc(F)cc(F)c3)cn2)cc(C(C)C)c1 , respond with its % inhibition.
RESULT: 17

QUERY: Given O/N=C(\NCc1cc(F)cc(F)c1)c1cccnc1Oc1ccc(Cl)cc1 , respond with its % inhibition.
RESULT: 59

QUERY: Given O/N=C(/c1ccc(Oc2ccc3ccccc3c2)nc1)N1CCC2CCCCC2C1 (stereo unspecified) , respond with its % inhibition.
RESULT: 28

QUERY: Given CC1CC(C)CN(/C(=N\O)c2cccnc2Oc2c(F)cccc2F)C1 (stereo unspecified) , respond with its % inhibition.
RESULT: 28

QUERY: Given Cc1cc(C)cc(CN/C(=N\O)c2ccc(Oc3cccc(C)c3)nc2)c1 , respond with its % inhibition.
RESULT: 19

QUERY: Given COc1cccc(CN/C(=N\O)c2cccnc2OCC2CCCCC2)c1 , respond with its % inhibition.
RESULT: 71

QUERY: Given CC(=O)c1ccc(N2CCN(Cc3coc(-c4ccc(F)cc4)n3)CC2)cc1 , respond with its % inhibition.
RESULT: -5

QUERY: Given COCC(C)N/C(=N\O)c1cccnc1OCC(C)C (stereo unspecified) , respond with its % inhibition.
RESULT: 5

QUERY: Given Cc1cc(C)cc(Oc2ccc(/C(=N/O)NCc3ccccc3)cn2)c1 , respond with its % inhibition.
RESULT: -3

QUERY: Given O/N=C(/c1ccc(Oc2ccc(Cl)cc2)nc1)N1CCC2CCCCC2C1 (stereo unspecified) , respond with its % inhibition.
RESULT: 99

QUERY: Given CCOc1ccccc1-c1nc(CN2CCCCC2)co1 , respond with its % inhibition.
RESULT: -1

QUERY: Given O/N=C(\NCc1cccs1)c1cccnc1Oc1cccc(C(F)(F)F)c1 , respond with its % inhibition.
RESULT: -12

QUERY: Given CCN(CC)Cc1coc(-c2cccc(OC)c2)n1 , respond with its % inhibition.
RESULT: 11

QUERY: Given CCc1ccc(Oc2ncccc2/C(N)=N/O)cc1 , respond with its % inhibition.
RESULT: 1

QUERY: Given CCOc1ccccc1-c1nc(CN2CCN(c3cc(C)nc4ccccc34)CC2)co1 , respond with its % inhibition.
RESULT: 14

QUERY: Given COCC(C)N/C(=N\O)c1cccnc1Oc1ccc(C(C)C)cc1 (stereo unspecified) , respond with its % inhibition.
RESULT: 99

QUERY: Given COCC(C)N/C(=N\O)c1cccnc1Oc1ccc(OC)cc1 (stereo unspecified) , respond with its % inhibition.
RESULT: -10

QUERY: Given O/N=C(/c1ccnc(Oc2cccc3cnccc23)c1)N1CCN(c2ccccc2)CC1 , respond with its % inhibition.
RESULT: 7

QUERY: Given CCC(CC)N/C(=N\O)c1ccc(Oc2c(F)c(F)cc(F)c2F)nc1 , respond with its % inhibition.
RESULT: 19

QUERY: Given COc1ccc(Oc2ncccc2/C(=N/O)NCc2cccs2)cc1 , respond with its % inhibition.
RESULT: 37

QUERY: Given O/N=C(/c1ccc(Oc2cccc3cccnc23)nc1)N1CCN(c2ccccc2)CC1 , respond with its % inhibition.
RESULT: -27

QUERY: Given CCC(CC)N/C(=N\O)c1ccc(Oc2ccc(C)cc2C)nc1 , respond with its % inhibition.
RESULT: 26

QUERY: Given CCC(CC)N/C(=N\O)c1ccc(Oc2ccc(Cl)cc2)nc1 , respond with its % inhibition.
RESULT: 96

QUERY: Given O/N=C(/c1ccc(Oc2cc(Cl)ccc2Cl)nc1)N1CCC2CCCCC2C1 (stereo unspecified) , respond with its % inhibition.
RESULT: -2

QUERY: Given Cc1ccc(/C(=N/O)NC2CC2)c(OCc2ccncc2)n1 , respond with its % inhibition.
RESULT: 19

QUERY: Given CC1CCC(N/C(=N\O)c2cccnc2Oc2c(F)cccc2F)CC1 (stereo unspecified) , respond with its % inhibition.
RESULT: 99

QUERY: Given CCOc1ccc(Oc2cc(/C(N)=N/O)ccn2)cc1 , respond with its % inhibition.
RESULT: 7

QUERY: Given Fc1ccc(-c2nc(CNCCN3CCCC3)co2)cc1 , respond with its % inhibition.
RESULT: 1

QUERY: Given CC(C)c1ccc(Oc2ncccc2/C(=N/O)NCc2cccs2)cc1 , respond with its % inhibition.
RESULT: 100

QUERY: Given C#CCNCc1coc(-c2cccc(C)c2)n1 , respond with its % inhibition.
RESULT: 24

QUERY: Given COc1ccc(Oc2ncccc2/C(=N/O)NCc2cc(F)cc(F)c2)cc1 , respond with its % inhibition.
RESULT: 39

QUERY: Given CCc1ccc(Oc2ncccc2/C(=N/O)NCc2ccncc2)cc1 , respond with its % inhibition.
RESULT: 5

QUERY: Given CC1CC(C)CN(/C(=N\O)c2ccc(Oc3cccc4cccnc34)nc2)C1 (stereo unspecified) , respond with its % inhibition.
RESULT: -24

QUERY: Given Fc1ccc(-c2nc(CNCCN3CCCCC3)co2)cc1 , respond with its % inhibition.
RESULT: -17

QUERY: Given COCC(C)N/C(=N\O)c1ccc(Oc2cc(Cl)ccc2Cl)nc1 (stereo unspecified) , respond with its % inhibition.
RESULT: 23

QUERY: Given Cc1cccc(Oc2ccc(/C(=N/O)NC(C)C)cn2)c1 , respond with its % inhibition.
RESULT: 8

QUERY: Given CCC(C)(C)N/C(=N\O)c1ccc(Oc2cc(C)cc(C(C)C)c2)nc1 , respond with its % inhibition.
RESULT: 91
